Record form. Attribute: half-life. Fill in for each entry.
method: Metabolic stability in human liver microsome assessed as half life
Assay type: ADME
experimental parameters: liver microsomes
Give just the number in min; leave the unit off.

Enquiry: Look at this compound and give its reported half-life. `CCN(C(=O)Nc1cc(O[C@@H](C)C(F)(F)F)c(C(=O)Nc2c(F)cccc2Cl)cc1F)C1CC1`
Return: 50

Enquiry: Look at this compound and give its reported half-life. C[C@H](Oc1cc(NC(=O)N2CCCC2CO)c(F)cc1C(=O)Nc1c(F)cccc1Cl)C(F)(F)F (mixture of isomers)
Return: 56

Enquiry: Look at this compound and give its reported half-life. `C[C@H](Oc1cc(NC(=O)N2CC(CO)C2)c(F)cc1C(=O)Nc1c(F)cccc1Cl)C(F)(F)F`
Return: 142

Enquiry: Look at this compound and give its reported half-life. C[C@H](Oc1cc(NC(=O)N2CCC2CO)c(F)cc1C(=O)Nc1c(F)cccc1Cl)C(F)(F)F (mixture of isomers)
Return: 28

Enquiry: Look at this compound and give its reported half-life. C[C@H](Oc1cc(NC(=O)N2C(=O)CCC2CO)c(F)cc1C(=O)Nc1c(F)cccc1Cl)C(F)(F)F (mixture of isomers)
Return: 62

Enquiry: Look at this compound and give its reported half-life. `CCN(CC)C(=O)Nc1cc(O[C@@H](C)C(F)(F)F)c(C(=O)Nc2c(F)cccc2Cl)cc1F`
Return: 26

Enquiry: Look at this compound and give its reported half-life. `C[C@H](Oc1cc(NC(=O)N(C)C)c(F)cc1C(=O)Nc1c(F)cccc1Cl)C(F)(F)F`
Return: 22

Enquiry: Look at this compound and give its reported half-life. `CCN(C)C(=O)Nc1cc(O[C@@H](C)C(F)(F)F)c(C(=O)Nc2c(F)cccc2Cl)cc1F`
Return: 21

* * *

method: Half-life in C57 mouse at 10 mg/kg, po or 2 mg/kg, iv
Assay type: ADME, organism-based
experimental parameters: in vivo
test readout: half-life (h)
Give just the number in h; leave the unit off.

Enquiry: Look at this compound and give its reported half-life. C[C@H](Oc1cc(NC(=O)N2C(=O)CCC2CO)c(F)cc1C(=O)Nc1c(F)cccc1Cl)C(F)(F)F (mixture of isomers)
Return: 3

* * *

method: Plasma protein binding in mouse assessed as free fraction
Assay type: ADME, cell-free
experimental parameters: read-out: PPB
test readout: fraction unbound
Keep it simple and answer with nothing but the number.

Enquiry: Look at this compound and give its reported fraction unbound. C[C@H](Oc1cc(NC(=O)N2C(=O)CCC2CO)c(F)cc1C(=O)Nc1c(F)cccc1Cl)C(F)(F)F (mixture of isomers)
Return: 0.007

* * *

method: Intrinsic clearance in human liver microsomes
Format: ADME, Microsome
experimental parameters: read-out: CLH
test readout: CLint scaled

Enquiry: Look at this molecule and give its reported CLint scaled. `CCn1c(CO)nn(-c2nc(O[C@@H](C)C(F)(F)F)c(C(=O)Nc3c(C)cnc(OC)c3Cl)cc2F)c1=O`
Return: < 7.7 mL/min/kg

* * *

method: Metabolic stability in mouse liver microsome assessed as half life
Assay type: ADME
experimental parameters: liver microsomes
Parameter threshold = 40 min. Response is yes when half-life meets or exceeds it, else no.

Enquiry: Does half-life meet or surpass 40 min for `CCN(C(=O)Nc1cc(O[C@@H](C)C(F)(F)F)c(C(=O)Nc2c(F)cccc2Cl)cc1F)C1CC1` ?
Return: no

Enquiry: Does half-life meet or surpass 40 min for `C[C@H](Oc1cc(NC(=O)N(C)C)c(F)cc1C(=O)Nc1c(F)cccc1Cl)C(F)(F)F` ?
Return: no

Enquiry: Does half-life meet or surpass 40 min for `C[C@H](Oc1cc(NC(=O)N2CC(CO)C2)c(F)cc1C(=O)Nc1c(F)cccc1Cl)C(F)(F)F` ?
Return: yes

Enquiry: Does half-life meet or surpass 40 min for C[C@H](Oc1cc(NC(=O)N2CCC2CO)c(F)cc1C(=O)Nc1c(F)cccc1Cl)C(F)(F)F (mixture of isomers) ?
Return: no

Enquiry: Does half-life meet or surpass 40 min for `CCN(C)C(=O)Nc1cc(O[C@@H](C)C(F)(F)F)c(C(=O)Nc2c(F)cccc2Cl)cc1F` ?
Return: no

Enquiry: Does half-life meet or surpass 40 min for `CCN(CC)C(=O)Nc1cc(O[C@@H](C)C(F)(F)F)c(C(=O)Nc2c(F)cccc2Cl)cc1F` ?
Return: no

Enquiry: Does half-life meet or surpass 40 min for C[C@H](Oc1cc(NC(=O)N2CCCC2CO)c(F)cc1C(=O)Nc1c(F)cccc1Cl)C(F)(F)F (mixture of isomers) ?
Return: yes

Enquiry: Does half-life meet or surpass 40 min for `CCN(CC)C(=O)N(C)c1cc(O[C@@H](C)C(F)(F)F)c(C(=O)Nc2c(F)cccc2Cl)cc1F` ?
Return: no

Enquiry: Does half-life meet or surpass 40 min for C[C@H](Oc1cc(NC(=O)N2C(=O)CCC2CO)c(F)cc1C(=O)Nc1c(F)cccc1Cl)C(F)(F)F (mixture of isomers) ?
Return: yes

* * *

Tested on: MOLM-13
method: Antiproliferative activity in human MOLM-13 AML cells assessed as reduction in cell viability incubated for 72 hrs by CellTiter-Glo assay
experimental parameters: MOLM-13, 72 h
Record form. Attribute: pIC50. Fill in for each entry.
// pIC50 here means minus log10 of the molar concentration (mol/L)

Enquiry: Look at this compound and give its reported pIC50. `CCN(CC)C(=O)Nc1cc(O[C@@H](C)C(F)(F)F)c(C(=O)Nc2c(F)cccc2Cl)cc1F`
Return: 9.20

Enquiry: Look at this compound and give its reported pIC50. C[C@H](Oc1cc(NC(=O)N2CCC2CO)c(F)cc1C(=O)Nc1c(F)cccc1Cl)C(F)(F)F (mixture of isomers)
Return: 8.80

Enquiry: Look at this compound and give its reported pIC50. `C[C@H](Oc1cc(NC(=O)N2CCC(F)(F)C2)c(F)cc1C(=O)Nc1c(F)cccc1Cl)C(F)(F)F`
Return: 8.37

Enquiry: Look at this compound and give its reported pIC50. `CC/C(=C\CO)C(=O)Nc1cc(O[C@@H](C)C(F)(F)F)c(C(=O)Nc2c(F)cccc2Cl)cc1F`
Return: 7.19

Enquiry: Look at this compound and give its reported pIC50. `C[C@H](Oc1cc(NC(=O)N2CCCC2)c(F)cc1C(=O)Nc1c(F)cccc1Cl)C(F)(F)F`
Return: 8.89

Enquiry: Look at this compound and give its reported pIC50. C[C@H](Oc1cc(NC(=O)N2CCCC2CO)c(F)cc1C(=O)Nc1c(F)cccc1Cl)C(F)(F)F (mixture of isomers)
Return: 8.82

Enquiry: Look at this compound and give its reported pIC50. `CCCC(=O)Nc1cc(O[C@@H](C)C(F)(F)F)c(C(=O)Nc2c(F)cccc2Cl)cc1F`
Return: 7.34

Enquiry: Look at this compound and give its reported pIC50. `CCNC(=O)Nc1cc(O[C@@H](C)C(F)(F)F)c(C(=O)Nc2c(F)cccc2Cl)cc1F`
Return: 7.28

Enquiry: Look at this compound and give its reported pIC50. `CCC(CC)C(=O)Nc1cc(O[C@@H](C)C(F)(F)F)c(C(=O)Nc2c(F)cccc2Cl)cc1F`
Return: 7.28

Enquiry: Look at this compound and give its reported pIC50. `C[C@H](Oc1cc(NC(=O)C2CC2)c(F)cc1C(=O)Nc1c(F)cccc1Cl)C(F)(F)F`
Return: 7.26

Enquiry: Look at this compound and give its reported pIC50. `CCN(C)C(=O)Nc1cc(O[C@@H](C)C(F)(F)F)c(C(=O)Nc2c(F)cccc2Cl)cc1F`
Return: 9.09

Enquiry: Look at this compound and give its reported pIC50. `C[C@H](Oc1cc(NC(=O)N2CC(CO)C2)c(F)cc1C(=O)Nc1c(F)cccc1Cl)C(F)(F)F`
Return: 6.37

Enquiry: Look at this compound and give its reported pIC50. `CCN(C(=O)Nc1cc(O[C@@H](C)C(F)(F)F)c(C(=O)Nc2c(F)cccc2Cl)cc1F)C1CC1`
Return: 9.00

Enquiry: Look at this compound and give its reported pIC50. `C[C@H](Oc1cc(NC(=O)N(C)C)c(F)cc1C(=O)Nc1c(F)cccc1Cl)C(F)(F)F`
Return: 8.70

Enquiry: Look at this compound and give its reported pIC50. C[C@H](Oc1cc(NC(=O)N2C(=O)CCC2CO)c(F)cc1C(=O)Nc1c(F)cccc1Cl)C(F)(F)F (mixture of isomers)
Return: 9.04

Enquiry: Look at this compound and give its reported pIC50. `CCN(CC)C(=O)N(C)c1cc(O[C@@H](C)C(F)(F)F)c(C(=O)Nc2c(F)cccc2Cl)cc1F`
Return: 7.60

Enquiry: Look at this compound and give its reported pIC50. `CC(=O)Nc1cc(O[C@@H](C)C(F)(F)F)c(C(=O)Nc2c(F)cccc2Cl)cc1F`
Return: 6.43

Enquiry: Look at this compound and give its reported pIC50. `CCC(=O)Nc1cc(O[C@@H](C)C(F)(F)F)c(C(=O)Nc2c(F)cccc2Cl)cc1F`
Return: 7.46

Enquiry: Look at this compound and give its reported pIC50. COCC1CCCN1C(=O)Nc1cc(O[C@@H](C)C(F)(F)F)c(C(=O)Nc2c(F)cccc2Cl)cc1F (stereo not given in full)
Return: 7.96

Enquiry: Look at this compound and give its reported pIC50. CCC(CCO)C(=O)Nc1cc(O[C@@H](C)C(F)(F)F)c(C(=O)Nc2c(F)cccc2Cl)cc1F (stereo not given in full)
Return: 6.69
